# Tested on: Epidermal growth factor receptor (Homo sapiens), P00533 [L858R,T790M,C797S]
# Sequence (P00533 whole entry T790M/C797S/L858R): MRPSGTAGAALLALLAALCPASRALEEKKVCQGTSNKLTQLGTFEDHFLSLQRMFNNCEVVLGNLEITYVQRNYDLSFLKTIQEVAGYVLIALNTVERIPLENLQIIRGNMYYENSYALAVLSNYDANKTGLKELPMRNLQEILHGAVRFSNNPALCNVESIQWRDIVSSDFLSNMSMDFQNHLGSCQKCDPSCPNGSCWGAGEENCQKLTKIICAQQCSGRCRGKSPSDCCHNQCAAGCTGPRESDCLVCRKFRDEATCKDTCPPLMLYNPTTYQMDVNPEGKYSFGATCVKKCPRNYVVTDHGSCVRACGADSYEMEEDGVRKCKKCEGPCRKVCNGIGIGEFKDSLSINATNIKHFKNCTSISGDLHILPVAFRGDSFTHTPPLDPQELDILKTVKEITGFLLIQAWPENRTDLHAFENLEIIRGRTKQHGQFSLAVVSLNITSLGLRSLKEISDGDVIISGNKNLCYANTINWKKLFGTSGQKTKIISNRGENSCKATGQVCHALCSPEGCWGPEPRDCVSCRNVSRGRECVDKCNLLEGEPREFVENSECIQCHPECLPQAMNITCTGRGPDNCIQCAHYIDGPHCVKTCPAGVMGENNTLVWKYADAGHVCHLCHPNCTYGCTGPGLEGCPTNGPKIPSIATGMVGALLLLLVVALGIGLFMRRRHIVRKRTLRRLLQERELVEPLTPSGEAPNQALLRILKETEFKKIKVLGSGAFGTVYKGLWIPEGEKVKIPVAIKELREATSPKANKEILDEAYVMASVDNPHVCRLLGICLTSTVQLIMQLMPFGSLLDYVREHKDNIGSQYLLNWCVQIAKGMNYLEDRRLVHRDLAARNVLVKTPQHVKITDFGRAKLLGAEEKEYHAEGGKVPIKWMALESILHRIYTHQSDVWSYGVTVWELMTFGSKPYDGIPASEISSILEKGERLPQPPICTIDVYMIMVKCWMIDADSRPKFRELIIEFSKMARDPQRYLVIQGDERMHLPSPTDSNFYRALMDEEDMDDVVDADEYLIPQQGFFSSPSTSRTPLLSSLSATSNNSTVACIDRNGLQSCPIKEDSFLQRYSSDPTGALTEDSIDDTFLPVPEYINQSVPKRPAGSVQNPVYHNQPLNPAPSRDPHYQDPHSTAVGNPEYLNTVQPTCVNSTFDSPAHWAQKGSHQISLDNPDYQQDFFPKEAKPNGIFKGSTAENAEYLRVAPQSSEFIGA
# method: Inhibition of EGFR L858R/T790M/C797S mutant (unknown origin) at 1 uM relative to control
inhibition for assorted molecules
recorded.metric: inhibition (%)

- C=CC(=O)Nc1cc(Nc2ncc3cc(CNc4c(C)cccc4C)n(C4CCCC4)c3n2)c(OC)cc1N(C)CCN(C)C: 40
- C=CC(=O)Nc1cc(Nc2ncc3cc(C(=O)Nc4cccc(OC)c4)n(C4CCCC4)c3n2)c(OC)cc1N1CCC(N(C)C)CC1: 16
- C=CC(=O)Nc1cc(Nc2ncc3cc(C(=O)Nc4cccc(C(F)(F)F)c4)n(C4CCCC4)c3n2)c(OC)cc1N(C)CCN(C)C: 10
- C=CC(=O)Nc1cc(Nc2ncc3cc(C(=O)Nc4cccc(OC)c4)n(C4CCCC4)c3n2)c(OC)cc1N1CCOCC1: 3.2
- C=CC(=O)Nc1cc(Nc2ncc3cc(CNc4cccc(C)c4)n(C4CCCC4)c3n2)c(OC)cc1N(C)CCN(C)C: 61
- C=CC(=O)Nc1cc(Nc2ncc3cc(C(=O)Nc4cccc(OC(F)(F)F)c4)n(C4CCCC4)c3n2)c(OC)cc1N(C)CCN(C)C: 0.6
- CN1CCN(c2ccc(Nc3ncc4cc(CNc5ccccc5)n(C5CCCC5)c4n3)cc2)CC1: 90
- C=CC(=O)Nc1cc(Nc2ncc3cc(C(=O)Nc4ccc5c(c4)OCO5)n(C4CCCC4)c3n2)c(OC)cc1N(C)CCN(C)C: 13
- CN(C)CCN(C)c1ccc(Nc2ncc3cc(CNc4ccccc4)n(C4CCCC4)c3n2)cc1: 90
- C=CC(=O)Nc1cc(Nc2ncc3cc(C(=O)Nc4ccccc4)n(C4CCCC4)c3n2)c(OC)cc1N1CCC(N2CCN(C)CC2)CC1: 20
- C=CC(=O)Nc1cc(Nc2ncc3cc(C(=O)Nc4cccc(OC)c4)n(C(C)C)c3n2)c(OC)cc1N(C)CCN(C)C: 12
- C=CC(=O)Nc1cc(Nc2ncc3cc(C(=O)NC4CCCCC4)n(C4CCCC4)c3n2)c(OC)cc1N(C)CCN(C)C: 6.5
- C=CC(=O)Nc1cc(Nc2ncc3cc(C(=O)Nc4cccc(OC)c4)n(C4CCCC4)c3n2)c(OC)cc1N1CCN(CCOC)CC1: -0.3
- C=CC(=O)Nc1cc(Nc2ncc3cc(C(=O)Nc4cccc(OC)c4)n(-c4ccccc4)c3n2)c(OC)cc1N(C)CCN(C)C: 6
- C=CC(=O)Nc1cc(Nc2ncc3cc(C(=O)Nc4cc(OC)c(OC)c(OC)c4)n(C4CCCC4)c3n2)c(OC)cc1N(C)CCN(C)C: 5.3
- C=CC(=O)Nc1cc(Nc2ncc3cc(C(=O)Nc4ccccc4)n(C4CCCC4)c3n2)c(OC)cc1N1CCN(C)CC1: 23
- C=CC(=O)Nc1cc(Nc2ncc3cc(C(=O)Nc4cccc(OC)c4)n(C4CC4)c3n2)c(OC)cc1N(C)CCN(C)C: 7.8
- COc1cc(N2CCC(N3CCN(C)CC3)CC2)ccc1Nc1ncc2cc(CNc3ccccc3)n(C3CCCC3)c2n1: 82
- C=CC(=O)Nc1cc(Nc2ncc3cc(C(=O)Nc4ccccc4)n(C4CCCC4)c3n2)c(OC)cc1N1CCN(C(C)C)CC1: 21
- C=CC(=O)Nc1cc(Nc2ncc3cc(C(=O)Nc4cccc(OC)c4)n(C)c3n2)c(OC)cc1N(C)CCN(C)C: -1.3
- C=CC(=O)Nc1cc(Nc2ncc3cc(C(=O)Nc4cccc(C#N)c4)n(C4CCCC4)c3n2)c(OC)cc1N(C)CCN(C)C: 3
- COc1cc(N2CCC(N(C)C)CC2)ccc1Nc1ncc2cc(CNc3ccccc3)n(C3CCCC3)c2n1: 83
- C=CC(=O)Nc1cc(Nc2ncc3cc(C(=O)Nc4ccccc4)n(C4CCCC4)c3n2)c(OC)cc1N(C)CCN(C)C: 26
